Test system: COLO 205 colon
Assay: NCI-60 one-dose screen, 48 h (100 = growth as untreated, 0 = no growth, -100 = all killed)
Conditions: 10 µM unless noted
The panel holds about 83,000 compounds, 20% with a hit somewhere; the sample as a whole holds those more often.
Values of growth strictly less than 80% map to TRUE, and values of at least 80% map to FALSE.

- COMPOUND: "CCNC(=O)Oc1ccc(/C(=C(\\C)c2ccc(Cl)cc2)c2ccc(OCCN(CC)CC)cc2)cc1"
  CLASSIFICATION: "TRUE"
- COMPOUND: "COC(=O)[C@]12CCC(C)(C)C[C@H]1[C@H]1C(=O)C[C@@H]3[C@@]4(C)c5c([nH]c6ccccc6c5=O)C(C)(C)[C@@H]4CC[C@@]3(C)[C@]1(C)CC2"
  CLASSIFICATION: "TRUE"
- COMPOUND: "CC/C=C\\C[C@H](O)C/C=C1/C(=O)C=C[C@@]1(C)C/C=C\\CCCC(=O)OC"
  CLASSIFICATION: "FALSE"
- COMPOUND: "NC(=NCCCOc1ccc(Cl)cc1)Nc1ccc(Cl)cc1"
  CLASSIFICATION: "TRUE"
- COMPOUND: "COc1ccc(-c2nc3ccc(-c4nc5ccc(N6CCN(C)CC6)cc5[nH]4)cc3[nH]2)cc1OC"
  CLASSIFICATION: "TRUE"
- COMPOUND: "COc1cc2c(cc1-c1c(C)noc1C)ncc1nc(-c3ccccn3)n([C@H](C)COC(F)F)c12"
  CLASSIFICATION: "TRUE"
- COMPOUND: "Cc1cc2nc(NC(=O)CN3CCN(CCN4C(=O)c5cccc6cccc(c56)C4=O)CC3)sc2cc1C"
  CLASSIFICATION: "FALSE"
- COMPOUND: "COc1ccc(/C=C2\\Oc3cc(OCCCCN4CCCC4)ccc3C2=O)cc1"
  CLASSIFICATION: "FALSE"
- COMPOUND: "O=C1c2cc3c(cc2-c2c1c1cc(F)c(F)cc1c(=O)n2CCCn1ccnc1)OCO3"
  CLASSIFICATION: "TRUE"
- COMPOUND: "CCN1CCC2(CC1)NC(=O)c1c(c3ccc(Cl)c(Cl)c3n1C)C2C#N (stereo not drawn)"
  CLASSIFICATION: "TRUE"
- COMPOUND: "Cn1ccnc1C(=O)/C=C/c1ccc(CC(=O)Nc2ccccc2)cc1"
  CLASSIFICATION: "TRUE"
- COMPOUND: "O=C1/C(=C/c2ccc3c(c2)OCO3)SC(=S)N1CCc1ccc(O)cc1"
  CLASSIFICATION: "FALSE"
- COMPOUND: "CC[C@]1(O)C[C@@H]2CN(CCc3c([nH]c4ccccc34)[C@@](C(=O)OC)(c3cc4c(cc3OC)N(C)[C@H]3[C@@](O)(C(N)=O)[C@H](O)[C@]5(CC)[C@@H]6C[C@@H]6CN6CC[C@]43[C@@H]65)C2)C1"
  CLASSIFICATION: "TRUE"
- COMPOUND: "O=C(COc1ccc(/C=C2\\CSc3ccccc3C2=O)cc1)Nc1nccs1"
  CLASSIFICATION: "FALSE"
- COMPOUND: "Cc1ccc(-c2onc3c(=O)[nH]nc(-c4ccccc4)c23)cc1"
  CLASSIFICATION: "TRUE"
- COMPOUND: "N#C/C(=C\\c1ccc(-c2cc(C(F)(F)F)ccc2Cl)o1)c1nc(-c2ccco2)cs1"
  CLASSIFICATION: "FALSE"
- COMPOUND: "COc1cc2nc(N3CCCC3)nc(NCC3CCCCC3)c2cc1OC"
  CLASSIFICATION: "TRUE"
